tested.on: T1, canine NGF tagged at the C-terminus with the Flag tag (canine, UniProt A0A8I3PYI3 122-241)
T1 construct: mature; Expressed with baculovirus technology; also called feline NGF (processed form identical)
protocol.text: SPR off-rate screen, Fab-SASA on BSA chip
readout.name: Kd (nM)
Write it as a number; the unit nM goes unstated.

{"columns": ["binder", "observed.measurement"],
 "data": [
  ["felinized clone 101 Fab-SASA variant S30Y (VL) (Fab, V domains shown, not shown: small tags and cut ends) VH: DVQLVESGGDLVKPGGSLRLTCVASGLSLTSSSMSWVRQAPGKGLQWVSTIYSNGGTYYTDSVKGRFTISKDNAENTLYLQMNNLKTEDTATYYCASIYYYDADYLHWYFDFWGQGALVTVSS VL: EIQMTQSPTSLSASVGDRVTITCRASEGIYNNLSWYQQTPGKAPKLLIYATSNLHSGVPSRFSGSGSGTDFTLTISSLQPEDFATYYCQQGYKWPLTFGGGTKLEITR", 2.2],
  ["felinized clone 101 Fab-SASA variant Y52W (VH) (Fab, V domains shown, not shown: small tags and cut ends) VH: DVQLVESGGDLVKPGGSLRLTCVASGLSLTSSSMSWVRQAPGKGLQWVSTIWSNGGTYYTDSVKGRFTISKDNAENTLYLQMNNLKTEDTATYYCASIYYYDADYLHWYFDFWGQGALVTVSS VL: EIQMTQSPTSLSASVGDRVTITCRASEGISNNLSWYQQTPGKAPKLLIYATSNLHSGVPSRFSGSGSGTDFTLTISSLQPEDFATYYCQQGYKWPLTFGGGTKLEITR", 1.5],
  ["felinized clone 101 Fab-SASA variant K64E (VH) (Fab, V domains shown, not shown: small tags and cut ends) VH: DVQLVESGGDLVKPGGSLRLTCVASGLSLTSSSMSWVRQAPGKGLQWVSTIYSNGGTYYTDSVEGRFTISKDNAENTLYLQMNNLKTEDTATYYCASIYYYDADYLHWYFDFWGQGALVTVSS VL: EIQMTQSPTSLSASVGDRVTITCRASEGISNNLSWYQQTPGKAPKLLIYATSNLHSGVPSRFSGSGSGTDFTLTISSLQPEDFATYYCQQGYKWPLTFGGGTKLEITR", 2.42],
  ["felinized clone 101 Fab-SASA variant S56D (VL) (Fab, V domains shown, not shown: small tags and cut ends) VH: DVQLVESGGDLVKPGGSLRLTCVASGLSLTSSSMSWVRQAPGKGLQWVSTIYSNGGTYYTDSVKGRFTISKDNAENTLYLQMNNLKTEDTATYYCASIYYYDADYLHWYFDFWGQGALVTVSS VL: EIQMTQSPTSLSASVGDRVTITCRASEGISNNLSWYQQTPGKAPKLLIYATSNLHDGVPSRFSGSGSGTDFTLTISSLQPEDFATYYCQQGYKWPLTFGGGTKLEITR", 2.03],
  ["felinized clone 101 Fab-SASA variant F112P (VH) (Fab, V domains shown, not shown: small tags and cut ends) VH: DVQLVESGGDLVKPGGSLRLTCVASGLSLTSSSMSWVRQAPGKGLQWVSTIYSNGGTYYTDSVKGRFTISKDNAENTLYLQMNNLKTEDTATYYCASIYYYDADYLHWYFDPWGQGALVTVSS VL: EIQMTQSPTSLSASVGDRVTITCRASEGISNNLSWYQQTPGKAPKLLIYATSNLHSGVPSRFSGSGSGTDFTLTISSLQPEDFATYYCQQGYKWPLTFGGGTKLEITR", 1.39]
]}

Entry felinized clone 101 Fab-SASA variant T60E (VH) (Fab, V domains shown, not shown: small tags and cut ends) VH: DVQLVESGGDLVKPGGSLRLTCVASGLSLTSSSMSWVRQAPGKGLQWVSTIYSNGGTYYEDSVKGRFTISKDNAENTLYLQMNNLKTEDTATYYCASIYYYDADYLHWYFDFWGQGALVTVSS VL: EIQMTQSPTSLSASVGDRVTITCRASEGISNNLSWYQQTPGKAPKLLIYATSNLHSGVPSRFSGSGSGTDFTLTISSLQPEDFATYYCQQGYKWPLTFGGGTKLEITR needs its Kd filled in; supply it.
2.38

Complete the entry with Kd for felinized clone 101 Fab-SASA variant N53L (VL) (Fab, V domains shown, not shown: small tags and cut ends) VH: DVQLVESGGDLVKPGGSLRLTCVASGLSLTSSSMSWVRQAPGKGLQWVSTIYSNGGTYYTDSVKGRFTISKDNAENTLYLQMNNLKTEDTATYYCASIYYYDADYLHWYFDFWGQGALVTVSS VL: EIQMTQSPTSLSASVGDRVTITCRASEGISNNLSWYQQTPGKAPKLLIYATSLLHSGVPSRFSGSGSGTDFTLTISSLQPEDFATYYCQQGYKWPLTFGGGTKLEITR
2.08

Dear colleague, please send me the reported Kd for felinized clone 101 Fab-SASA variant S56T (VL) (Fab, V domains shown, not shown: small tags and cut ends) VH: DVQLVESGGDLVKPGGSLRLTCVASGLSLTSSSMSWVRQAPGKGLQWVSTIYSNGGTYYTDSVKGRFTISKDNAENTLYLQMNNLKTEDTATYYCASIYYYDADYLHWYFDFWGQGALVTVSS VL: EIQMTQSPTSLSASVGDRVTITCRASEGISNNLSWYQQTPGKAPKLLIYATSNLHTGVPSRFSGSGSGTDFTLTISSLQPEDFATYYCQQGYKWPLTFGGGTKLEITR when you can.
1.99

Could you please provide reported Kd for felinized clone 101 Fab-SASA variant N53I (VL) (Fab, V domains shown, not shown: small tags and cut ends) VH: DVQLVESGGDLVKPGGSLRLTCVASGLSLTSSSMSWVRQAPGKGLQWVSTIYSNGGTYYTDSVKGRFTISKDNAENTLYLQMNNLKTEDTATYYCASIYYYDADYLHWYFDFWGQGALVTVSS VL: EIQMTQSPTSLSASVGDRVTITCRASEGISNNLSWYQQTPGKAPKLLIYATSILHSGVPSRFSGSGSGTDFTLTISSLQPEDFATYYCQQGYKWPLTFGGGTKLEITR ? Thanks!
1.41

Find the measured Kd of felinized clone 101 Fab-SASA variant F112N (VH) (Fab, V domains shown, not shown: small tags and cut ends) VH: DVQLVESGGDLVKPGGSLRLTCVASGLSLTSSSMSWVRQAPGKGLQWVSTIYSNGGTYYTDSVKGRFTISKDNAENTLYLQMNNLKTEDTATYYCASIYYYDADYLHWYFDNWGQGALVTVSS VL: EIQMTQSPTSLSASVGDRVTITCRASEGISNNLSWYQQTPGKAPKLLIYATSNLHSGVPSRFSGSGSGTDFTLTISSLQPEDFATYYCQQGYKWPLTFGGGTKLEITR and report it.
1.85

The reported numbers originate from patent US20250011410A1.
